# Test system: K. pneumoniae 156319 expressing KPC-3
# PROTOCOL SUMMARY: Broth microdilution MIC assay, partner meropenem
# Type: cell-based
# APPLIED CONDITIONS: Klebsiella pneumoniae, read-out: MIC of Exemplary Compounds in presence of fixed β-lactams, Fixed Mero, K.P. 156319 KPC-3
ENDPOINT: MIC

MIC lookup needed for O=C(N[C@H]1Cc2cccc(C(=O)O)c2OB1O)c1ccc2[nH]ccc2c1 [Example 26] , thanks. < 4 µg/mL

Reported MIC for NCCN1Cc2ccc(CC(=O)N[C@H]3Cc4cccc(C(=O)O)c4OB3O)cc2C1 [Example 49] : what is it? < 4 µg/mL

I'd like to know its MIC. The compound in question is O=C(N[C@H]1Cc2cccc(C(=O)O)c2OB1O)c1ccc2ncccc2c1 [Example 28] < 4 µg/mL

Which MIC reading was recorded for the compound NCc1cc(C(=O)N[C@H]2Cc3cccc(C(=O)O)c3OB2O)cnc1CN [Example 62] ? < 4 µg/mL

Which value of MIC has been reported for Cc1ccc(C(=O)N[C@H]2Cc3cccc(C(=O)O)c3OB2O)cc1N [Example 23] in the records? < 4 µg/mL

What value of measured MIC is listed for O=C(N[C@H]1Cc2cccc(C(=O)O)c2OB1O)c1ccc2c(c1)CN(Cc1cccnc1)C2 [Example 12] ? 8 to 32 µg/mL

For O=C(Cc1ccc2c(c1)CNC2)N[C@H]1Cc2cccc(C(=O)O)c2OB1O [Example 36] , what is its reported MIC? < 4 µg/mL

Requested read-out: MIC. Entry: CNCc1ccc(C(=O)N[C@H]2Cc3cccc(C(=O)O)c3OB2O)cc1CNC [Example 19] < 4 µg/mL

Which MIC reading was recorded for the compound NC1=Nc2cc(C(=O)N[C@H]3Cc4cccc(C(=O)O)c4OB3O)ccc2CN1 [Example 15] ? 8 to 32 µg/mL

GET /values?readout=MIC&item= O=C(N[C@H]1Cc2cccc(C(=O)O)c2OB1O)c1ccc2cc[nH]c2c1 [Example 30] < 4 µg/mL

So what's the measured MIC for this one? O=C(O)c1cccc2c1OB(O)[C@@H](NC(=O)C1(c3ccccc3)CCNCC1)C2 [Example 3] < 4 µg/mL

For the compound O=C(N[C@H]1Cc2cccc(C(=O)O)c2OB1O)c1ccc(-c2ccncc2)cc1 [Example 27] , what MIC is on record? > 32 µg/mL

Any idea what MIC was measured for NCCOc1ccc(C(=O)N[C@H]2Cc3cccc(C(=O)O)c3OB2O)cc1O [Example 40] ? < 4 µg/mL

So what's the measured MIC for this one? O=C(O)c1ccccc1C(=O)N[C@H]1Cc2cccc(C(=O)O)c2OB1O [Example 53] < 4 µg/mL

Look at this compound and give its reported MIC. O=C(N[C@H]1Cc2cccc(C(=O)O)c2OB1O)c1cnc2c(c1)CNC2 [Example 50] < 4 µg/mL

Which MIC is listed for N=C(N)N1Cc2ccc(C(=O)N[C@H]3Cc4cccc(C(=O)O)c4OB3O)cc2C1 [Example 16] ? < 4 µg/mL

Requested field: MIC. Item: Cc1ccc(C(=O)N[C@H]2Cc3cccc(C(=O)O)c3OB2O)cc1NC(=O)[C@@H](N)CN [Example 22] < 4 µg/mL

---

# TARGET DESC: VIM-2 (Escherichia coli)
# Construct: made in house; host or cells: E. coli BL21(DE3)
# PROTOCOL SUMMARY: β-Lactamase enzyme inhibition assay, VIM-2 (nitrocefin substrate)
# Assay type: biochemical
# APPLIED CONDITIONS: nitrocefin substrate 100 μM, 15 min preincubation at 37° C.; read-out: IC50, Class B VIM-2
pIC50: −log10 of the molar value.
Would you mind telling me the reported pIC50 of each entry?

For the molecule shown here, N=C(N)N1Cc2ccc(CC(=O)N[C@H]3Cc4cccc(C(=O)O)c4OB3O)cc2C1 [Example 37] , give the reported pIC50. 6.00 to 7.00

# query: pIC50 of entry O=C(N[C@H]1Cc2cccc(C(=O)O)c2OB1O)c1ccc(O)c(O)c1 [Example 39] 6.00 to 7.00

Give the measured pIC50 of NCc1ccc(C(=O)N[C@H]2Cc3cccc(C(=O)O)c3OB2O)cc1CN [Example 14] . > 7.00

May I ask what pIC50 has been recorded for O=C(N[C@H]1Cc2cccc(C(=O)O)c2OB1O)c1csc2c1CCNC2 [Example 4] ? 6.00 to 7.00

Entry O=C1Cc2cc(C(=O)N[C@H]3Cc4cccc(C(=O)O)c4OB3O)ccc2N1 [Example 33] : reported pIC50 = ? 6.00 to 7.00

What does the record list as pIC50 for O=C(O)c1cccc2c1OB(O)[C@@H](NC(=O)c1cccc3cc[nH]c13)C2 [Example 31] ? 5.00 to 6.00

Please look up its pIC50: O=C(N[C@H]1Cc2cccc(C(=O)O)c2OB1O)c1ccc(-c2ccccn2)cc1 [Example 24] 6.00 to 7.00

So what does the record say about pIC50 for O=C(Cc1ccc2cc[nH]c2c1)N[C@H]1Cc2cccc(C(=O)O)c2OB1O [Example 46] ? > 7.00

Given O=C(N[C@H]1Cc2cccc(C(=O)O)c2OB1O)c1ccc2ncccc2c1 [Example 28] , state its recorded pIC50. 5.00 to 6.00

Consider the molecule shown here: NCCN1Cc2ccc(CC(=O)N[C@H]3Cc4cccc(C(=O)O)c4OB3O)cc2C1 [Example 49] What is its recorded pIC50? 6.00 to 7.00

Quick one: pIC50 for CN1CCc2cc(C(=O)N[C@H]3Cc4cccc(C(=O)O)c4OB3O)ccc2C1 [Example 7] ? 6.00 to 7.00

Requested read-out: pIC50. Entry: O=C(O)c1cccc2c1OB(O)[C@@H](NC(=O)c1cccc3[nH]ccc13)C2 [Example 32] 6.00 to 7.00

Given O=C(N[C@H]1Cc2cccc(C(=O)O)c2OB1O)c1ccc2[nH]ccc2c1 [Example 26] , state its recorded pIC50. 6.00 to 7.00

Can you look up the measured pIC50 of NCc1ccc(CC(=O)N[C@H]2Cc3cccc(C(=O)O)c3OB2O)cc1CN [Example 20] for me? > 7.00

Find the recorded pIC50 belonging to NCCNc1ccc(CC(=O)N[C@H]2Cc3cccc(C(=O)O)c3OB2O)cn1 [Example 60] and report it. 6.00 to 7.00

Consider the molecule NCCOc1ccc(CC(=O)N[C@H]2Cc3cccc(C(=O)O)c3OB2O)cc1OCCN [Example 58] and give its measured pIC50. 6.00 to 7.00

Data request, read-out pIC50, for NCCN1Cc2ccc(C(=O)N[C@H]3Cc4cccc(C(=O)O)c4OB3O)cc2C1 [Example 11] 6.00 to 7.00

Returns the measured pIC50 for the input molecule. Input: CN1Cc2ccc(CC(=O)N[C@H]3Cc4cccc(C(=O)O)c4OB3O)cc2C1 [Example 48] > 7.00
